From: ChEMBL document CHEMBL1136077

Molecular target: Caspase-3 (Homo sapiens)
Sequence (P42574 whole entry): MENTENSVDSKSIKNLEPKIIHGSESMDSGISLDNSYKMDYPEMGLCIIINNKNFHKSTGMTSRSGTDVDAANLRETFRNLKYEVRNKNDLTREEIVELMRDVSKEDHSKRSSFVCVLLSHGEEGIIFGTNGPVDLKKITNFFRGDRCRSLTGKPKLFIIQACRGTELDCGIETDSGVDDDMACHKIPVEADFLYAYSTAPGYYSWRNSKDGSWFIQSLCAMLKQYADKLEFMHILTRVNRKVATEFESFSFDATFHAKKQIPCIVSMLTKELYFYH
pIC50: −log10 of the molar value.
parameter: pIC50

Exercise: So what does the record say about pIC50 for O=C[C@H](CC(=O)O)NC(=O)c1ccncc1 ?
Key: < 3.70
